# Target Or Test System: glucocerebrosidase (Gcase) (Homo sapiens, UniProt P04062)
# Sequence (P04062 40-536): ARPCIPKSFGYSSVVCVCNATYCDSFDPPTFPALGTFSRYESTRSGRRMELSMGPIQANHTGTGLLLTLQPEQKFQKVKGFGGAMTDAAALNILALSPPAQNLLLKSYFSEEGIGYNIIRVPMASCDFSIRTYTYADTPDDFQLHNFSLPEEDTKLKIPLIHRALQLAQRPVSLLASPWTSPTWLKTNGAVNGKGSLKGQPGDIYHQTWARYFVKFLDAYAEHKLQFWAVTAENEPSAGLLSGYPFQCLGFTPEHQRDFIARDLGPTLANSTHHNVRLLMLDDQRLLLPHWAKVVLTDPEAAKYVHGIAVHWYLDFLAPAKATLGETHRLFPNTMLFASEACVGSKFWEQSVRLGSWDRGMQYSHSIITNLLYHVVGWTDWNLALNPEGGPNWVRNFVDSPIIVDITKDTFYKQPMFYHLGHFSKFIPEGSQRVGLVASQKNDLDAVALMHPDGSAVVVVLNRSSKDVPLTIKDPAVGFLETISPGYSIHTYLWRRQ
# Assay Details: Glucocerebrosidase (Gcase) activation assay, 4-methylumbelliferyl-beta-D-glucopyranoside substrate, with saposin C
# Type: biochemical
# Condition Notes: 1 μM test compound; read-out: Percent Gcase Activation 1 μM Test Compound
Reported Endpoint: activation at 1 µM

Worked cases, activation at 1 µM given:
Cc1cc(-c2ccc(F)cc2)nc2c(C(=O)NC(C)(C)C)ncn12
> 60%
COCc1cc(C)n2cnc(C(=O)NC(c3ccc(F)cc3)C(F)(F)F)c2n1 (stereo not drawn)
> 60%
COc1cccc(-c2cc(C)n3cnc(C(=O)NC(C4CC4)C(F)(F)F)c3n2)n1 (stereo not drawn)
> 60%
Cc1cc(C)n2cnc(C(=O)NC(CC(C)C)C3CC3)c2n1 (stereo not drawn)
> 60%
Cc1cc(-c2ccccn2)nc2c(C(=O)N[C@@H](C)c3ccccc3F)ncn12
> 60%

Inquiry: Field request: activation at 1 µM | item: `Cc1cc(C)n2cnc(C(=O)NC(C)(C)C3CC3)c2n1`
Reply text: < 30%

---

Entries and their measured activation at 1 µM follow.
# Target Or Test System: glucocerebrosidase (Gcase) (Homo sapiens, UniProt P04062)
# Assay Details: Glucocerebrosidase (Gcase) activation assay, 4-methylumbelliferyl-beta-D-glucopyranoside substrate, with saposin C
# Assay type: biochemical
# Condition Notes: 1 μM test compound; read-out: Percent Gcase Activation 1 μM Test Compound

Worked cases, activation at 1 µM given:
Cc1cc(-c2cncs2)nc2c(C(=O)NC(C)(C)C3CC3)ncn12
> 60%
C#CC(C)(C)NC(=O)c1ncn2c(C)cc(-c3cccc(OC4CC4)c3)nc12
> 60%
Cc1cc(-c2ccc(F)cc2)nc2c(C(=O)N[C@@H](C)C3CC3)ncn12
> 60%
COc1cccc(-c2cc(C)n3cnc(C(=O)NC(C)(C)C(F)(F)F)c3n2)c1
> 60%
COCc1cc(C)nc2c(C(=O)NC(c3ccc(F)cc3)C(F)(F)F)ncn12 (stereo not drawn)
> 60%

Inquiry: Field request: activation at 1 µM | item: `C#Cc1cccc([C@@H](NC(=O)c2ncn3c(C)cc(C)nc23)C(F)(F)F)c1`
Reply text: > 60%

Inquiry: Field request: activation at 1 µM | item: `Cc1cc(C)n2cnc(C(=O)NC(C)(C)C3CC4(CCC4)C3)c2n1`
Reply text: > 60%

Inquiry: Field request: activation at 1 µM | item: `Cc1cc(C)n2cnc(C(=O)N[C@@H](C)C3CC3)c2n1`
Reply text: < 30%

Inquiry: Field request: activation at 1 µM | item: `Cc1cc(N2CCC(F)(F)CC2)nc2c(C(=O)N[C@@H](C)C3CC3)ncn12`
Reply text: < 30%

Inquiry: Field request: activation at 1 µM | item: Cc1cc(-c2ccccc2C#N)nc2c(C(=O)NC(C3CC3)C(F)(F)F)ncn12 (stereo not drawn)
Reply text: > 60%

Inquiry: Field request: activation at 1 µM | item: `Cc1cc(-n2cncn2)nc2c(C(=O)NC(C)(C)C3CC3)ncn12`
Reply text: < 30%

Inquiry: Field request: activation at 1 µM | item: `COc1cccc(-c2cc(C)n3cnc(C(=O)NC(C)(C)C4CC4)c3n2)n1`
Reply text: > 60%

Inquiry: Field request: activation at 1 µM | item: `Cc1cc(Oc2ccc(F)cc2)nc2c(C(=O)NC(C)(C)C3CC3)ncn12`
Reply text: 30 to 60%

Inquiry: Field request: activation at 1 µM | item: `Cc1cc(-c2cc(Cl)ccn2)nc2c(C(=O)N[C@@H](C)C3CC3)ncn12`
Reply text: > 60%

Inquiry: Field request: activation at 1 µM | item: COc1cccc(-c2cc(C)n3cnc(C(=O)NC(C)C(F)(F)F)c3n2)c1 (stereo not drawn)
Reply text: > 60%

Inquiry: Field request: activation at 1 µM | item: Cc1cc(-c2cccnc2)nc2c(C(=O)NC(c3ccc(F)cc3)C(F)(F)F)ncn12 (stereo not drawn)
Reply text: > 60%

Inquiry: Field request: activation at 1 µM | item: `Cc1cc(N2CCC(F)(F)CC2)nc2c(C(=O)NC(C)(C)C3CC3)ncn12`
Reply text: 30 to 60%

Inquiry: Field request: activation at 1 µM | item: Cc1cc(Cl)nc2c(C(=O)NC(c3ccc(F)cc3)C(F)(F)F)ncn12 (stereo not drawn)
Reply text: > 60%
